Tested on: HCI-025 (organoid from a breast cancer xenograft)
assayExplanation: CTG-3D luminescence at 96 h relative to day-0 seeding control (ratio to day 0); higher = more growth / less cytotoxicity; PDxO 3D drug screen, 96 h, CTG-3D normalised to day-0 seeding control.
testContext: 1 µM; days in culture: 209
Recorded CTG-3D luminescence at 96 h determines the group label, using Low = under 0.4, Mid = from 0.4 up to 1, High = 1 and over

Data request: // return the class label for CN(Cc1cnc2nc(N)nc(N)c2n1)c1ccc(C(=O)N[C@@H](CCC(=O)O)C(=O)O)cc1 [methotrexate]
Data returned: High

Data request: Please do the same for Cc1nc(-c2cn3c(n2)-c2ccc(-c4cnn(C(C)(C)C(N)=O)c4)cc2OCC3)n(C(C)C)n1 [taselisib] as well.
Data returned: Mid

Data request: Please do the same for CC1(C)CCC(c2ccc(Cl)cc2)=C(CN2CCN(c3ccc(C(=O)NS(=O)(=O)c4ccc(N[C@H](CCN5CCOCC5)CSc5ccccc5)c(S(=O)(=O)C(F)(F)F)c4)cc3)CC2)C1 [navitoclax] as well.
Data returned: High

Data request: Please do the same for C[C@H](NC(=O)CCC(F)(F)F)C(=O)N[C@@H]1C(=O)N(CCO)c2ncccc2-c2ccccc21 [crenigacestat] as well.
Data returned: High

Data request: Please do the same for CC(=O)O[C@H]1C(=O)[C@@]2(C)[C@H]([C@H](OC(=O)c3ccccc3)[C@]3(O)C[C@H](OC(=O)[C@H](O)[C@@H](NC(=O)c4ccccc4)c4ccccc4)C(C)=C1C3(C)C)[C@]1(OC(C)=O)CO[C@@H]1C[C@@H]2O [paclitaxel] as well.
Data returned: Low

Data request: Please do the same for Nc1ccn([C@@H]2O[C@H](CO)[C@@H](O)C2(F)F)c(=O)n1 [gemcitabine] as well.
Data returned: Mid

Data request: Please do the same for NC(=O)Nc1cc(-c2cccc(F)c2)sc1C(=O)N[C@H]1CCCNC1 [AZD7762] as well.
Data returned: Low

Data request: Please do the same for C=CCn1c(=O)c2cnc(Nc3ccc(N4CCN(C)CC4)cc3)nc2n1-c1cccc(C(C)(C)O)n1 [adavosertib] as well.
Data returned: High

Data request: Please do the same for C/C=C1\NC(=O)[C@H]2CSSCC/C=C/[C@H](CC(=O)N[C@H](C(C)C)C(=O)N2)OC(=O)[C@H](C(C)C)NC1=O [romidepsin] as well.
Data returned: Low

Data request: Please do the same for CC(C)n1nc(-c2ccc3oc(N)nc3c2)c2c(N)ncnc21 [sapanisertib] as well.
Data returned: Low

Data request: Please do the same for C[C@@H]1COCCN1c1cc(C2([S@](C)(=N)=O)CC2)nc(-c2cc[nH]c3nccc2-3)n1 [ceralasertib] as well.
Data returned: Mid

Data request: Please do the same for C[C@]12CC[C@@H]3c4ccc(O)cc4C[C@@H](CCCCCCCCC[S+]([O-])CCCC(F)(F)C(F)(F)F)[C@H]3[C@@H]1CC[C@@H]2O (some centres not stated) [fulvestrant] as well.
Data returned: High

Taken from the supplement of paper PMC8882468.
